# experimental_target: T1, human CD30 (commercial, conjugated to digoxigenin) (human, UniProt P28908 19-379, limits assumed, conjugated to digoxigenin (DIG))
# T1 sequence (looked up): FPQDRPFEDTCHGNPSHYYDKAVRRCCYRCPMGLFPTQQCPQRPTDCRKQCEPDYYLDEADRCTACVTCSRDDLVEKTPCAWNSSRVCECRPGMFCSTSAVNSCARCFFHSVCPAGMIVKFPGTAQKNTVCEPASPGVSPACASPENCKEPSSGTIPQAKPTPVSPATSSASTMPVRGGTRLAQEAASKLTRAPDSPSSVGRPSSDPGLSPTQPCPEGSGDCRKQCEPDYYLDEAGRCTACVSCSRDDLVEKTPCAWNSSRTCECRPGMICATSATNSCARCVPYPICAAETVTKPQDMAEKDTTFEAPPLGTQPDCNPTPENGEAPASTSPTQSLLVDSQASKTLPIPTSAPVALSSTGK
# protocol_description: AlphaScreen competition
measurement_kind: Fold IC50 vs H3/L3 (fold)
Give a bare numeral; the unit fold is implied.

As a guide, the following entries are already answered.
Exercise: Given the entry AC10 H3.18/L3 (antibody, IgG1, name in Kabat numbering, V domains shown) VH: QIQLVQSGPEVKKPGASVKVSCKASGYTFTDYYINWVRQAPGQGLEWMGWIYPGSGNTKYNEKFQGRFVFSVDTSASTAYLQISSLKAEDTAVYFCANYGNYWFAYWGQGTLVTVSS VL: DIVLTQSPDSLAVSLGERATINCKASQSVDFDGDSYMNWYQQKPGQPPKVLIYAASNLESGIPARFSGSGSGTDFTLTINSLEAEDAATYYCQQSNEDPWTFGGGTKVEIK , report its measured Fold IC50 vs H3/L3.
Solution: 0.13

Exercise: # lookup: Fold IC50 vs H3/L3 of AC10 H3.28/L3 (antibody, IgG1, name in Kabat numbering, V domains shown) VH: QIQLVQSGPEVKKPGASVKVSCKASGYTFTDYYITWVRQAPGQGLEWMGWIYVGSGNTKYNEKFQGRFVFSVDTSASTAYLQISSLKAEDTAVYFCANYGNYWFAYWGQGTLVTVSS VL: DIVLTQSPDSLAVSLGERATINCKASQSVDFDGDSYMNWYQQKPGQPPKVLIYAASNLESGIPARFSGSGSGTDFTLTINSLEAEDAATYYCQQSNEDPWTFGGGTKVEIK
Solution: 1.34

Continue with the binder presented below.
Exercise: State the recorded Fold IC50 vs H3/L3 for this entry: AC10 H3.39/L3 (antibody, IgG1, name in Kabat numbering, V domains shown) VH: QIQLVQSGPEVKKPGASVKVSCKASGYTFTDYYITWVRQAPGQGLEWMGWIYPGSGNTKYDEKFQGRFVFSVDTSASTAYLQISSLKAEDTAVYFCANYGNYWFAYWGQGTLVTVSS VL: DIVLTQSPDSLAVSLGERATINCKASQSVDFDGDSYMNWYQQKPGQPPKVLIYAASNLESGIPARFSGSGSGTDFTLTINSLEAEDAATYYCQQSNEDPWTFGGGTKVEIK
Solution: 1

# credit: patent US7657380
